Reference source for all entries: ChEMBL document CHEMBL1201862

Record type: AC50 measurement. Applies to: Cytochrome P450 2D6 (Homo sapiens, UniProt P10635)

Known AC50 results, listed for orientation:
>>> value_reported("CC1CCc2cc(F)ccc2N1C(=O)CSc1n[nH]c2c3cc(F)ccc3nc-2n1 (configuration not stated)")
"14.1 µM (inconclusive)"
>>> value_reported("O=C(c1ccccc1)c1c[nH]c(C(=O)NCc2cccnc2)c1")
"15.8 µM (inconclusive)"
>>> value_reported("O=C(Cc1ccccc1[N+](=O)[O-])NCCSCc1c(F)cccc1Cl")
"2.82 µM (inconclusive)"
>>> value_reported("CN1CC[C@@]2(CCCN(C(=O)c3ccco3)C2)C1")
"20 µM (inconclusive)"
>>> value_reported("CC(NC(=O)Cc1ccc(F)cc1)c1ccccc1 (configuration not stated)")
"15.8 µM (inconclusive)"
>>> value_reported("NC(=O)/C(=C\\c1ccncc1)c1cccc2ccccc12")
"2 µM (inconclusive)"

Would you kindly look at the next entry?
The reported AC50 of the molecule Cn1cc(-c2nc3cnc(N4CCNCC4)nc3n(Cc3ccc(F)cc3)c2=O)c2ccccc21 was 20 µM (inconclusive)
